Target: calmodulin (Homo sapiens)
Assay: calcium-dependent phosphodiesterase assay (inhibition of calmodulin activity)
Format: biochemical
Conditions: inhibition of calmodulin activation of phosphodiesterase at 50 μM peptide; PDE without calmodulin = 100%, Calmo = 0%
Square brackets hold non-standard residues; d marks the D form. Peptide text beside a SMILES is read from it.
compounds and their reported inhibition at 50 µM

| compound | inhibition at 50 µM, % |
| --- | --- |
| CC(=O)N[C@H](CC(C)C)C(=O)N[C@H](CCC(N)=O)C(=O)N[C@H](CCCNC(=N)N)C(=O)N[C@H](Cc1c[nH]cn1)C(=O)N[C@H](Cc1c[nH]cn1)C(=O)N[C@H](CCCNC(=N)N)C(N)=O (Ac-[dL][dQ][dR][dH][dH][dR]-NH2) | 63.2 |
| CC[C@@H](C)[C@@H](NC(=O)[C@@H](Cc1c[nH]c2ccccc12)NC(=O)[C@@H](CC(C)C)NC(C)=O)C(=O)N[C@H](Cc1c[nH]cn1)C(=O)N[C@H](Cc1c[nH]cn1)C(=O)N[C@H](Cc1c[nH]c2ccccc12)C(N)=O (Ac-[dL][dW][dI][dH][dH][dW]-NH2) | 103 |
| CC[C@@H](C)[C@@H](NC(=O)[C@@H](CCC(N)=O)NC(=O)[C@@H](CC(C)C)NC(C)=O)C(=O)N[C@H](Cc1c[nH]cn1)C(=O)N[C@H](CC(C)C)C(=O)N[C@H](Cc1c[nH]c2ccccc12)C(N)=O (Ac-[dL][dQ][dI][dH][dL][dW]-NH2) | 46 |
| CC[C@@H](C)[C@@H](NC(=O)[C@@H](Cc1c[nH]c2ccccc12)NC(=O)[C@@H](CC(C)C)NC(C)=O)C(=O)N[C@@H](C(=O)N[C@H](CC(C)C)C(=O)N[C@H](CCCNC(=N)N)C(N)=O)[C@H](C)CC (Ac-[dL][dW][dI][dI][dL][dR]-NH2) | 85.5 |

* * *

compounds and their reported inhibition at 50 µM
Target: calmodulin (Homo sapiens)
Assay: calcium-dependent phosphodiesterase assay (inhibition of calmodulin activity)
Type: biochemical
Details: inhibition of calmodulin activation of phosphodiesterase at 50 μM peptide; PDE without calmodulin = 100%, Calmo = 0%
Square brackets hold non-standard residues; d marks the D form. Peptide text beside a SMILES is read from it.

| compound | inhibition at 50 µM |
| --- | --- |
| CC[C@@H](C)[C@@H](NC(=O)[C@@H](CCCNC(=N)N)NC(=O)[C@@H](CCC(N)=O)NC(=O)[C@@H](CC(C)C)NC(C)=O)C(=O)N[C@H](CC(C)C)C(=O)N[C@H](CCCNC(=N)N)C(N)=O (Ac-[dL][dQ][dR][dI][dL][dR]-NH2) | -13.2% |
| CSCC[C@@H](NC(=O)[C@@H](Cc1c[nH]cn1)NC(=O)[C@@H](Cc1ccccc1)NC(=O)[C@@H](Cc1ccccc1)NC(C)=O)C(=O)N[C@H](CCSC)C(=O)N1CCC[C@@H]1C(N)=O [Ctr 1, reference compound] (Ac-[dF][dF][dH][dM][dM][dP]-NH2) | 36.8% |

* * *

Molecular target: calmodulin (Homo sapiens)
Assay: calcium-dependent phosphodiesterase assay (inhibition of calmodulin activity)
Conditions: concentration inhibiting 50% of calmodulin activity; assayed at 75 μM, 50 μM and 12.5 μM
pIC50: −log10 of the molar value. Square brackets hold non-standard residues; d marks the D form. Peptide text beside a SMILES is read from it.

| molecule | pIC50 |
| --- | --- |
| CC[C@@H](C)[C@@H](NC(=O)[C@@H](CCCNC(=N)N)NC(=O)[C@@H](CCC(N)=O)NC(=O)[C@@H](CC(C)C)NC(C)=O)C(=O)N[C@H](CC(C)C)C(=O)N[C@H](Cc1c[nH]c2ccccc12)C(N)=O (Ac-[dL][dQ][dR][dI][dL][dW]-NH2) | < 4.30 |
| CC(=O)N[C@H](CC(C)C)C(=O)N[C@H](Cc1c[nH]c2ccccc12)C(=O)N[C@H](CCCNC(=N)N)C(=O)N[C@H](Cc1c[nH]cn1)C(=O)N[C@H](CC(C)C)C(=O)N[C@H](Cc1c[nH]c2ccccc12)C(N)=O (Ac-[dL][dW][dR][dH][dL][dW]-NH2) | ≥ 5.00 |
| CC[C@@H](C)[C@@H](NC(=O)[C@@H](Cc1c[nH]c2ccccc12)NC(=O)[C@@H](CC(C)C)NC(C)=O)C(=O)N[C@@H](C(=O)N[C@H](Cc1c[nH]cn1)C(=O)N[C@H](Cc1c[nH]c2ccccc12)C(N)=O)[C@H](C)CC (Ac-[dL][dW][dI][dI][dH][dW]-NH2) | ≥ 5.05 |
| CC[C@@H](C)[C@@H](NC(=O)[C@@H](CCC(N)=O)NC(=O)[C@@H](CC(C)C)NC(C)=O)C(=O)N[C@@H](C(=O)N[C@H](CC(C)C)C(=O)N[C@H](Cc1c[nH]c2ccccc12)C(N)=O)[C@H](C)CC (Ac-[dL][dQ][dI][dI][dL][dW]-NH2) | < 4.30 |

* * *

Molecular target: calmodulin (Homo sapiens, UniProt P0DP23)
Assay: calcium-dependent phosphodiesterase assay (inhibition of calmodulin activity)
Type: biochemical
Settings: inhibition of calmodulin activation of phosphodiesterase at 50 μM peptide; PDE without calmodulin = 100%, Calmo = 0%
Square brackets hold non-standard residues; d marks the D form. Peptide text beside a SMILES is read from it.
Binary call on inhibition at 50 µM: label 1 from 40% upward, label 0 beneath that.

| compound | qualitative label |
| --- | --- |
| CC(=O)N[C@H](CC(C)C)C(=O)N[C@H](Cc1c[nH]c2ccccc12)C(=O)N[C@H](CCCNC(=N)N)C(=O)N[C@H](Cc1c[nH]cn1)C(=O)N[C@H](CC(C)C)C(=O)N[C@H](Cc1c[nH]c2ccccc12)C(N)=O (Ac-[dL][dW][dR][dH][dL][dW]-NH2) | label 1 |
| CC(=O)N[C@H](CC(C)C)C(=O)N[C@H](Cc1c[nH]c2ccccc12)C(=O)N[C@H](CCCNC(=N)N)C(=O)N[C@H](Cc1c[nH]cn1)C(=O)N[C@H](Cc1c[nH]cn1)C(=O)N[C@H](CCCNC(=N)N)C(N)=O (Ac-[dL][dW][dR][dH][dH][dR]-NH2) | label 1 |
| CC[C@@H](C)[C@@H](NC(=O)[C@@H](CCC(N)=O)NC(=O)[C@@H](CC(C)C)NC(C)=O)C(=O)N[C@H](Cc1c[nH]cn1)C(=O)N[C@H](Cc1c[nH]cn1)C(=O)N[C@H](CCCNC(=N)N)C(N)=O (Ac-[dL][dQ][dI][dH][dH][dR]-NH2) | label 1 |
| CC[C@@H](C)[C@@H](NC(=O)[C@@H](CCC(N)=O)NC(=O)[C@@H](CC(C)C)NC(C)=O)C(=O)N[C@@H](C(=O)N[C@H](Cc1c[nH]cn1)C(=O)N[C@H](Cc1c[nH]c2ccccc12)C(N)=O)[C@H](C)CC (Ac-[dL][dQ][dI][dI][dH][dW]-NH2) | label 0 |
| CC[C@@H](C)[C@@H](NC(=O)[C@@H](Cc1c[nH]c2ccccc12)NC(=O)[C@@H](CC(C)C)NC(C)=O)C(=O)N[C@@H](C(=O)N[C@H](Cc1c[nH]cn1)C(=O)N[C@H](Cc1c[nH]c2ccccc12)C(N)=O)[C@H](C)CC (Ac-[dL][dW][dI][dI][dH][dW]-NH2) | label 1 |
| CC(=O)N[C@H](CC(C)C)C(=O)N[C@H](Cc1c[nH]c2ccccc12)C(=O)N[C@H](CCCNC(=N)N)C(=O)N[C@H](Cc1c[nH]cn1)C(=O)N[C@H](Cc1c[nH]cn1)C(=O)N[C@H](Cc1c[nH]c2ccccc12)C(N)=O (Ac-[dL][dW][dR][dH][dH][dW]-NH2) | label 0 |
| CC[C@@H](C)[C@@H](NC(=O)[C@@H](CCC(N)=O)NC(=O)[C@@H](CC(C)C)NC(C)=O)C(=O)N[C@@H](C(=O)N[C@H](Cc1c[nH]cn1)C(=O)N[C@H](CCCNC(=N)N)C(N)=O)[C@H](C)CC (Ac-[dL][dQ][dI][dI][dH][dR]-NH2) | label 1 |

* * *

compounds and their reported inhibition at 50 µM
Molecular target: UniProt P0DP23
Assay: calcium-dependent phosphodiesterase assay (inhibition of calmodulin activity)
Format: biochemical
Details: inhibition of calmodulin activation of phosphodiesterase at 50 μM peptide; PDE without calmodulin = 100%, Calmo = 0%
Square brackets hold non-standard residues; d marks the D form. Peptide text beside a SMILES is read from it.

| compound | units label | inhibition at 50 µM |
| --- | --- | --- |
| CC(=O)N[C@H](CC(C)C)C(=O)N[C@H](CCC(N)=O)C(=O)N[C@H](CCCNC(=N)N)C(=O)N[C@H](Cc1c[nH]cn1)C(=O)N[C@H](CC(C)C)C(=O)N[C@H](Cc1c[nH]c2ccccc12)C(N)=O (Ac-[dL][dQ][dR][dH][dL][dW]-NH2) | % | 44.7 |
| CC[C@@H](C)[C@@H](NC(=O)[C@@H](CCCNC(=N)N)NC(=O)[C@@H](Cc1c[nH]c2ccccc12)NC(=O)[C@@H](CC(C)C)NC(C)=O)C(=O)N[C@H](CC(C)C)C(=O)N[C@H](CCCNC(=N)N)C(N)=O (Ac-[dL][dW][dR][dI][dL][dR]-NH2) | % | 107 |
| CC[C@@H](C)[C@@H](NC(=O)[C@@H](CCCNC(=N)N)NC(=O)[C@@H](Cc1c[nH]c2ccccc12)NC(=O)[C@@H](CC(C)C)NC(C)=O)C(=O)N[C@H](CC(C)C)C(=O)N[C@H](Cc1c[nH]c2ccccc12)C(N)=O (Ac-[dL][dW][dR][dI][dL][dW]-NH2) | % | 101 |
| CC[C@@H](C)[C@@H](NC(=O)[C@@H](CCCNC(=N)N)NC(=O)[C@@H](CCC(N)=O)NC(=O)[C@@H](CC(C)C)NC(C)=O)C(=O)N[C@H](Cc1c[nH]cn1)C(=O)N[C@H](Cc1c[nH]c2ccccc12)C(N)=O (Ac-[dL][dQ][dR][dI][dH][dW]-NH2) | % | 34.2 |
| CC[C@@H](C)[C@@H](NC(=O)[C@@H](Cc1c[nH]c2ccccc12)NC(=O)[C@@H](CC(C)C)NC(C)=O)C(=O)N[C@@H](C(=O)N[C@H](CC(C)C)C(=O)N[C@H](Cc1c[nH]c2ccccc12)C(N)=O)[C@H](C)CC (Ac-[dL][dW][dI][dI][dL][dW]-NH2) | % | 23.7 |
| CC[C@@H](C)[C@@H](NC(=O)[C@@H](CCC(N)=O)NC(=O)[C@@H](CC(C)C)NC(C)=O)C(=O)N[C@@H](C(=O)N[C@H](CC(C)C)C(=O)N[C@H](CCCNC(=N)N)C(N)=O)[C@H](C)CC (Ac-[dL][dQ][dI][dI][dL][dR]-NH2) | % | 15.8 |
| CC[C@H](C)[C@H](NC(=O)[C@H](Cc1ccccc1)NC(C)=O)C(=O)N[C@H](C(=O)N[C@@H](Cc1c[nH]c2ccccc12)C(=O)N[C@@H](Cc1ccccc1)C(=O)N[C@@H](CCC(=O)O)C(N)=O)[C@@H](C)CC [Ctr 3, Ac-Phe-Ile-Ile-Trp-Phe-Glu-NH2, reference compound] (Ac-FIIWFE-NH2) | % | 107 |
| CC[C@@H](C)[C@@H](NC(=O)[C@@H](CCC(N)=O)NC(=O)[C@@H](CC(C)C)NC(C)=O)C(=O)N[C@H](Cc1c[nH]cn1)C(=O)N[C@H](CC(C)C)C(=O)N[C@H](CCCNC(=N)N)C(N)=O (Ac-[dL][dQ][dI][dH][dL][dR]-NH2) | % | 28.9 |
